Experiment: NCI Yeast Anticancer Drug Screen. Data for the sgs1 mgt1 strain (AID 161);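 further: 0% = growth of cultures given vehicle only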
Conditions: S. cerevisiae sgs1 mgt1 strain, at 50.0 µM, stronger effect = higher value
This is part of a sample that, as a whole, favours compounds with a hit. Of some 79,000 tested, about 15% had one in any assay.
READOUT_LABEL: growth inhibition (%)
State just the number; it will be interpreted in %.

Example entries begin here.
NC(=S)C(=S)N/C=C/c1nc2ccccc2[nH]c1=O | 91.7
CC(/C=C/c1cccs1)=N\NC(=S)NCC(C)C | 97
CC(C)(C)c1ccc(C(=O)n2c(=S)oc3ccc(Cl)cc32)cc1 | 81.8

Problem: Report growth inhibition for O=C(O)c1c2c(cc3c1CC1(Cc4ccccc4C1=O)C3)CCC2 (configuration not stated) please.
Result: 84.8

Problem: Which value of growth inhibition has been reported for `Cc1nc2c(nc1C)C(=O)C1=C(C2=O)C2C=CC1CC2` in the records?
Result: 94.7

Problem: Name the reported growth inhibition value associated with the compound `CC(C)=CCC/C(C)=C/CC/C(C)=C/CSc1ccccc1C(=O)O`
Result: 54.5

Problem: # input compound: `CC(=O)c1ccc([N+](=O)[O-])o1` ; wanted: its growth inhibition
Result: 91.3

Problem: Report growth inhibition for `CCOC(=O)c1csc(=S)[nH]1` please.
Result: 74.5
